# experimentalSystem: 4'-phosphopantetheinyl transferase ffp (Bacillus subtilis) (UniProt Q9F4F7)
# testMethodNotes: qHTS Assay for Inhibitors of Bacillus subtilis Sfp phosphopantetheinyl transferase (PPTase);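 also: the enzyme is Sfp with the accession as filed and its product quenches rhodamine fluorescence; 0% = enzyme reaction without inhibitor and -100% = no enzyme wells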
# conditions: Biochemical Sfp PPTase activity
# Excerpt: Assay Submitter: Michael Burkart, University of California, San Diego Screening Center PI: Austin, C.P. Screening Center: NIH Chemical Genomics Center [NCGC] […] In search of small molecule Sfp-PPTase inhibitors, a fluorescence quenching assay was developed for detection of Bacillus subtilis Sfp-PPTase enzymatic activity in a miniaturized high-throughput format. […]
In all, about 310,000 compounds went through this assay and about 11,000 (3.5%) were called active. Not shown: some 4% with an inconclusive outcome. The sample as a whole holds a higher share of actives than the screen did.
quantityName: largest response in the series, negative = inhibition (%)
Write the answer as a number in %, unit excluded.

Recorded results for 2 compounds are shown here.
{"compound": "COCc1c(C(=O)N/N=C/C2CC=CCC2)nnn1-c1nonc1N (centres undefined)", "unitLabel": "%", "reported": -0.608}
{"compound": "COc1ccccc1NC(=O)CCC(=O)N1CC(C)Oc2ccc(C)cc21 (centres undefined)", "unitLabel": "%", "reported": 6.52}

Q: Query (compound): CCOc1ccc(C(=O)COC(=O)c2ccc(-n3cnnn3)cc2)cc1 ; field requested: largest response in the series, negative = inhibition
A: 8.76

Q: Query (compound): O=C(CN1CCN(S(=O)(=O)/C=C/c2ccccc2)CC1)NC(=O)NCc1ccco1 ; field requested: largest response in the series, negative = inhibition
A: -18.1

Q: Query (compound): O=C(N/N=C\C1CC=CCC1)c1ccc(Br)o1 (centres undefined) ; field requested: largest response in the series, negative = inhibition
A: 5.57

Q: Query (compound): COCCOC(=O)C1=C(C)NC(=O)NC1c1cc2c(cc1Br)OCO2 (centres undefined) ; field requested: largest response in the series, negative = inhibition
A: 10.6

Q: Query (compound): O=C(Nc1nnc(-c2ccccc2F)s1)c1ccccc1F ; field requested: largest response in the series, negative = inhibition
A: -1.78

Q: Query (compound): O=C(NCCS(=O)(=O)N1CCN(c2ccccc2F)CC1)c1ccc(Br)o1 ; field requested: largest response in the series, negative = inhibition
A: 27.4

Q: Query (compound): Cn1c(=O)n(C)c2cc(S(=O)(=O)Nc3ccc(F)cc3)ccc21 ; field requested: largest response in the series, negative = inhibition
A: 7.57

These data points were gathered from PubChem BioAssay AID1490.
